Target: SARS-CoV-2 3CLpro (Severe acute respiratory syndrome coronavirus 2, UniProt P0DTD1)
Test: biochemical
Assay type: biochemical
Set-up: unit not given here
Conditions: sheet LOPAC_screen_w_protease; LOPAC1280 at 5 µM; mean of two replicates
measuredAttribute: mean
Numbers only.

>>> numericresult("NC(=O)C1=CN([C@@H]2O[C@H](COP(=O)([O-])OP(=O)([O-])OC[C@H]3O[C@@H](n4cnc5c(N)ncnc54)[C@H](OP(=O)([O-])[O-])[C@@H]3O)[C@@H](O)[C@H]2O)C=CC1.[Na+].[Na+].[Na+].[Na+] [NADPH tetrasodium]")
1.2074

Hey, quick one: what's mean for each of these?
1. Cc1cccc(C(=O)NCN2CCN(c3ccccc3C#N)CC2)c1.O=C(O)/C=C\C(=O)O [PD 168,077 maleate]
2. Cn1cc(C(=O)OCC2CCN(CCNS(C)(=O)=O)CC2)c2ccccc21 [GR 113808]
3. CNCCc1ccc(O)c(O)c1.Cl [N-Methyldopamine hydrochloride]

1.169
1.128
1.304

###

Record form. Attribute: inhibition at 5 µM. Fill in for each entry.
Biological target: SARS-CoV-2 3CLpro (Severe acute respiratory syndrome coronavirus 2)
Experiment: biochemical
Format: biochemical
Conditions: 4 h, sheet LOPAC_screen_w_protease; LOPAC1280 primary screen at 5 µM, with protease; mean of two replicates; read-out: mean
Where a name gives a salt, the structure may show the parent alone.
Give bare numbers, in %.

Consider the worked cases shown below.
>>> numericresult("C[N+]1(C)[C@@H]2C[C@@H](OC(=O)[C@H](CO)c3ccccc3)C[C@H]1[C@@H]1O[C@@H]12 [(-)-Scopolamine methyl bromide]")
-1.17
>>> numericresult("O=C(c1ccc(F)cc1)C1CCN(CCn2c(=O)[nH]c3ccccc3c2=O)CC1 [Ketanserin tartrate]")
-1.02
>>> numericresult("O=c1c2ccccc2[nH]c(=S)n1CCN1CCC(=C(c2ccc(F)cc2)c2ccc(F)cc2)CC1")
-3.62
>>> numericresult("CCCCCCCCCCCCCCSCC(=O)O")
-1.74

Next up:
Returns the measured inhibition at 5 µM for the input compound. Input: Oc1c2ccccc2c2c3c(cccc13)N=N2 -1.9

###

Molecular target: SARS-CoV-2 3CLpro (Severe acute respiratory syndrome coronavirus 2)
Test: biochemical
Assay type: biochemical
Parameters: unit not given here
Conditions: sheet LOPAC_screen_w_protease; LOPAC1280 at 5 µM; replicate 2
measuredAttribute: Replicate_2
Numbers only.

The cases that follow already have their Replicate_2 on record.
>>> numericresult("COc1cc2nc(N3CCN(C(=O)OCc4ccccc4)C(C(=O)NC(C)(C)C)C3)nc(N)c2cc1OC (centres unmarked)")
-0.9073
>>> numericresult("CC(C)(C)NCC(O)COc1cccc2[nH]c(=O)[nH]c12.Cl (racemic) [(±)-CGP-12177A hydrochloride]")
-1.282
>>> numericresult("CN(C)C(N)=NCCC[C@H](N)C(=O)O.Cl [N^G,N^G-Dimethylarginine hydrochloride]")
-0.2808
>>> numericresult("Cc1cccc(C(=O)NCN2CCN(c3ccccc3C#N)CC2)c1.O=C(O)/C=C\\C(=O)O [PD 168,077 maleate]")
1.545
>>> numericresult("CCCN1CCC[C@H](c2cccc(O)c2)C1.Cl [R(+)-3PPP hydrochloride]")
0.167
>>> numericresult("NC(=O)c1cnccn1 [Pyrazinecarboxamide]")
0.2741
>>> numericresult("O=C(O)C=Cc1c[nH]cn1")
0.3591
>>> numericresult("Cl.NOCC(=O)O.NOCC(=O)O")
1.33

Each molecule below has a recorded value; state its Replicate_2.
1. CC(Oc1ccc(Oc2cnc3ccc(Cl)cc3n2)cc1)C(=O)O (centres unmarked)
2. CC(N)(Cc1ccc(O)cc1)C(=O)O (racemic)
3. CC1(C)CCC=[N+]1[O-] [5,5-Dimethyl-1-pyrroline-N-oxide]
4. CC(=O)[C@H]1CC[C@H]2[C@@H]3CC=C4C[C@@H](OS(=O)(=O)[O-])CC[C@]4(C)[C@H]3CC[C@]12C.[Na+] [Pregnenolone sulfate sodium]
5. O=C(O)/C=C\C(=O)O.O=C(O)/C=C\C(=O)O.c1cc(CN2CCCCC2)cc(OCCCNc2nc3ccccc3s2)c1 [SKF 95282 dimaleate]
6. CCCc1c(-c2ccc(O)cc2)nn(-c2ccc(O)cc2)c1-c1ccc(O)cc1
7. CCCN(CCc1ccccc1)C1CCc2c(O)cccc2C1.Cl (racemic) [(±)-PPHT hydrochloride]

2.215
1.617
1.253
2.043
0.911
-0.5503
0.9086

I have 5 molecules here; please give me Replicate_2 for each one.
1. CN1[C@@H](CC(=O)c2ccccc2)CCC[C@H]1C[C@H](O)c1ccccc1.Cl [alpha-Lobeline hydrochloride]
2. Cl.NC1CCN(c2cccc(Cl)n2)CC1 [SR 57227A]
3. O=C(Cc1ccc(Cl)c(Cl)c1)OCCN1CCCC1.O=C(O)C(=O)O [AC 915 oxalate]
4. CCN(CC)C(=O)c1ccc(O)c(OC)c1 [Vanillic acid diethylamide]
5. Cl.NCC(O)C1CCCCCCC1 (centres unmarked)

0.8887
0.9673
0.8765
0.7424
0.2229

###

Biological target: SARS-CoV-2 3CLpro (Severe acute respiratory syndrome coronavirus 2)
Experiment: biochemical
Assay type: biochemical
Conditions: 4 h, sheet LOPAC_screen_w_protease; primary screen with protease, compound at 5 µM; mean of two replicates; read-out: mean
Counter-ions that a name gives are not always drawn.
measuredAttribute: inhibition at 5 µM (%)
One number for each entry, in %.

>>> numericresult("O=C(O)c1cc(O)cc(C(=O)O)n1")
3.14
>>> numericresult("CNc1ccc2oc(C[C@H]3O[C@@]4(CC[C@H]3C)O[C@H]([C@H](C)C(=O)c3ccc[nH]3)[C@H](C)C[C@H]4C)nc2c1C(=O)O")
3.09
>>> numericresult("CCOC(=O)[N-]c1cn(N2CCOCC2)n[o+]1")
2.83
>>> numericresult("CCC(C)N(C)C(=O)c1cc2ccccc2c(-c2ccccc2Cl)n1 (stereo not drawn)")
3.14

The following compounds each have a reported value; give each one's inhibition at 5 µM.
1. N=C(N)NC(=O)Cc1c(Cl)cccc1Cl [Guanfacine hydrochloride]
2. CCOC(=O)c1ncn2c1CN(C)C(=O)c1cc(F)ccc1-2
3. NS(=O)(=O)c1cc2c(cc1Cl)NC(C1CC3C=CC1C3)NS2(=O)=O (stereo not drawn) [Cyclothiazide]
4. CC(C)N(CCC(C(N)=O)(c1ccccc1)c1ccccn1)C(C)C (stereo not drawn) [Disopyramide phosphate]
5. Fc1ccc(C(c2ccc(F)cc2)N2CCN(C/C=C/c3ccccc3)CC2)cc1 [Flunarizine dihydrochloride]
6. OC(CN1CCC(Cc2ccc(F)cc2)CC1)c1ccc(Cl)cc1 (stereo not drawn)
7. CN1[C@@H]2CC[C@H]1C[C@@H](OC(c1ccccc1)c1ccccc1)C2 [Benztropine mesylate]
8. COc1cccc(OC)c1OCCNCC1CSc2ccccc2O1 (stereo not drawn) [Benoxathian hydrochloride]

1. 2.62
2. 3.1
3. 2.93
4. 2.74
5. 2.85
6. 2.62
7. 3.08
8. 2.7

###

Biological target: UniProt:P0DTD1
Assay: biochemical
Assay type: biochemical
Conditions: with 0.01% Triton X-100; mean ± SD of triplicate; 4 h, 30 °C; read-out: A) EC50 with Triton X-100
Give measured pEC50 for each item. Keep answers brief.
Answers are plain numbers, as −log10 of the molar value.

Past entries and their recorded results:
>>> numericresult("Br.CCCN1CCc2cc(O)cc3c2[C@H]1Cc1ccc(O)c(O)c1-3 [R(−)-2-OH-NPA]")
6.13
>>> numericresult("CC1(NCC(O)COc2cccc3[nH]ccc23)CCC(C(C)(C)NC(=O)CBr)CC1 (racemic) [(±)-Pindobind, reference compound]")
5.33
>>> numericresult("O=C1O/C(=C/Br)CCC1c1cccc2ccccc12 (centres unmarked) [Bromoenol lactone, reference compound]")
6.09

Please go through the list and note pEC50 for each molecule.
1. CN1CC[C@@]2(C)c3cc(O)ccc3N(C)[C@@H]12 [(−)-Eseroline]
2. COc1ccc2c(c1)CC[C@@H]1[C@@H]2CC[C@]2(C)[C@@H](NCCCCCCN3C(=O)C=CC3=O)CC[C@@H]12 [U-73122, reference compound]
3. C[n+]1cc2c3c(ccc2c2ccc4cc5c(cc4c21)OCO5)OCO3
4. CN(N=O)c1ccc(O)c(O)c1 [Me-3,4-dephostatin, reference compound]
5. CC(C)N(CCC(=O)c1ccc2ccccc2c1)Cc1ccccc1

1: 6.00; 2: 6.16; 3: 5.75; 4: 5.42; 5: 6.52

Please give pEC50, item by item, for the list that follows.
1. CC(Cc1ccc(O)c(O)c1)C(C)Cc1ccc(O)c(O)c1 (centres unmarked) [Nordihydroguaiaretic acid]
2. CN=c1nc(-c2ccccc2)n(-c2ccccc2)s1
3. N#CC(C#N)=C(N)/C(C#N)=C/c1cc(O)c(O)c(O)c1 [Tyrphostin 51, reference compound]
4. CN(N=O)c1cc(O)ccc1O [Dephostatin, reference compound]
5. Oc1ccccc1O [Pyrocatechol, reference compound]
6. CC(=O)NCCc1ccc(O)c(O)c1
7. O=C(O)Cc1ccc(O)c(O)c1
8. O=Nc1ccc2oc(=O)ccc2c1 [6-Nitroso-1,2-benzopyrone, reference compound]

6.57
6.56
4.72
5.30
5.39
5.58
5.51
6.05
